Quick record of IC50 values for Epidermal growth factor receptor (Homo sapiens, UniProt P00533).
Express it in nM; write the number only.

The cases that follow already have their IC50 on record.
{"record-smiles": "COc1cc2c(Nc3ccc(C)c(Br)c3)ncnc2cc1OCCOCCNC(=O)Cn1cnc([N+](=O)[O-])n1", "unit": "nM", "IC50": 0.37}
{"record-smiles": "COc1cc2c(Nc3ccc(Br)cc3F)ncnc2cc1OCCNC(=O)Cn1cnc([N+](=O)[O-])n1", "unit": "nM", "IC50": 43.6}
{"record-smiles": "COc1cc2c(Nc3ccc(Br)cc3F)ncnc2cc1OCC1CCN(C(=O)Cn2cncc2[N+](=O)[O-])CC1", "unit": "nM", "IC50": 3.23}
{"record-smiles": "COc1cc2c(Nc3ccc(F)c(F)c3)ncnc2cc1OCCOCCNC(=O)Cn1cnc([N+](=O)[O-])n1", "unit": "nM", "IC50": 3.7}
{"record-smiles": "COc1cc2c(Nc3ccc(F)cc3Cl)ncnc2cc1OCCNC(=O)Cn1cnc([N+](=O)[O-])n1", "unit": "nM", "IC50": 48.1}

[in] Report IC50 for COc1cc2c(Nc3ccc(F)cc3Cl)ncnc2cc1OCCOCCNC(=O)Cn1cnc([N+](=O)[O-])n1 tested on Epidermal growth factor receptor (Homo sapiens, UniProt P00533).
Sequence (P00533 whole entry): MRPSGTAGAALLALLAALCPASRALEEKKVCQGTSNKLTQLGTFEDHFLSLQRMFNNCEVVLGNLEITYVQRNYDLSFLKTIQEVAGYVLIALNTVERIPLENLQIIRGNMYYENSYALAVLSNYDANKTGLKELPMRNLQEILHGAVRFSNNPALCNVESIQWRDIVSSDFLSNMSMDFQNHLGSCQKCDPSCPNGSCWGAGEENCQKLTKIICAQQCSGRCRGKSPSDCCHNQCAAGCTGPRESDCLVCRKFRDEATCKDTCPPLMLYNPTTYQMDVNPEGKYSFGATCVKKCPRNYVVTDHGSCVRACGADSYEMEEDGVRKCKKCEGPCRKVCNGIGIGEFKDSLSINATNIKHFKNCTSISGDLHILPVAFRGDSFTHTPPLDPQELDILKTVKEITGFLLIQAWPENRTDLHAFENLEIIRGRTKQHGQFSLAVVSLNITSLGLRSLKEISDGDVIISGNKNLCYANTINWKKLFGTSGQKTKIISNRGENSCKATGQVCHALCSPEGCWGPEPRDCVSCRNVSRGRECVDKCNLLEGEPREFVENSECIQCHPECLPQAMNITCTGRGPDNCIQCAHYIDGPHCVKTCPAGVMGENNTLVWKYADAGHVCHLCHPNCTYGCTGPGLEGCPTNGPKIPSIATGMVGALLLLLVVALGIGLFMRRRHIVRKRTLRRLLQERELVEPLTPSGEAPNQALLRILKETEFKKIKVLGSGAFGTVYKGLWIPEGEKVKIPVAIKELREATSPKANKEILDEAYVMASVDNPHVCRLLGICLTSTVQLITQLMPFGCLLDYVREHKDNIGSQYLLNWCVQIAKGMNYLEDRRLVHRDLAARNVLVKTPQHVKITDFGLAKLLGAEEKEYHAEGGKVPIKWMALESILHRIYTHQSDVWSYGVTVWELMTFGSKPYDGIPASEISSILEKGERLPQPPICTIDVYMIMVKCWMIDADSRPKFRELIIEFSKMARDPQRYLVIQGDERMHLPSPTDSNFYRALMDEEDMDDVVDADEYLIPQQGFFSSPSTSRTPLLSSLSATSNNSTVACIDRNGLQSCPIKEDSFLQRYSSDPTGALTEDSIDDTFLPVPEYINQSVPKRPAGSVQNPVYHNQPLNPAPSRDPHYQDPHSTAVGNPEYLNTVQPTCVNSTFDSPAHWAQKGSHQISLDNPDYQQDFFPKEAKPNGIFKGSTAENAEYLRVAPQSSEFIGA
[out] 20.8

[in] Enter reported IC50 observed with Epidermal growth factor receptor (Homo sapiens, UniProt P00533) for COc1cc2c(Nc3cccc(F)c3)ncnc2cc1OCCOCCNC(=O)Cn1cnc([N+](=O)[O-])n1
[out] 3.11

[in] Tell me reported IC50 for COc1cc2c(Nc3ccc(C)c(Br)c3)ncnc2cc1OCCOCCOCCNC(=O)Cn1cnc([N+](=O)[O-])n1 , tested with Epidermal growth factor receptor (Homo sapiens, UniProt P00533).
[out] 6.24

[in] // map COc1cc2c(Nc3ccc(Br)cc3F)ncnc2cc1OCCOCCNC(=O)Cn1cnc([N+](=O)[O-])n1 to recorded IC50 (system: Epidermal growth factor receptor (Homo sapiens, UniProt P00533))
[out] 5.9
